# STUDY TARGET: human VR1 (Homo sapiens, UniProt Q8NER1)
# Construct: expressed in transfected cells; host or cells: HEK293
# Sequence (Q8NER1 whole entry): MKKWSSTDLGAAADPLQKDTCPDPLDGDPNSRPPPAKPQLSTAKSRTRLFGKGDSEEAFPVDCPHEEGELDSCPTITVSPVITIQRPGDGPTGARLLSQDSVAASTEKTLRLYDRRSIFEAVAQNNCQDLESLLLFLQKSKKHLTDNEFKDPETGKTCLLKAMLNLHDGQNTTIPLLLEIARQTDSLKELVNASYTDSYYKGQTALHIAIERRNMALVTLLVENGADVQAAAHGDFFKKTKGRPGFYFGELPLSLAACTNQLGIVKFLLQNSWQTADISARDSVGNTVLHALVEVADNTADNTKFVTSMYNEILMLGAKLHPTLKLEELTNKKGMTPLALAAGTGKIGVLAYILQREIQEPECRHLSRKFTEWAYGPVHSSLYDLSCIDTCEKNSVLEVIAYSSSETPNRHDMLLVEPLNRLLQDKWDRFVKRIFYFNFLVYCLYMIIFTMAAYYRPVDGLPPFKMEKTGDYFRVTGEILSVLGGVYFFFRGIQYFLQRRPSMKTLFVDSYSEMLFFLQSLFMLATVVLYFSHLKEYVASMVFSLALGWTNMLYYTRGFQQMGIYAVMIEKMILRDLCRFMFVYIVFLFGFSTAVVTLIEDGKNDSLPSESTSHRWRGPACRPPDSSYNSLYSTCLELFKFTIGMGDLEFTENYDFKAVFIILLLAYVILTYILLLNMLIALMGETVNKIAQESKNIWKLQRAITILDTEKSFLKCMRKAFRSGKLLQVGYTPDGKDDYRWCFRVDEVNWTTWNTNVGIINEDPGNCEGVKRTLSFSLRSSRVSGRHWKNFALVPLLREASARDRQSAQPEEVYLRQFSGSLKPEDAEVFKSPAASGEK
# ASSAY OVERVIEW: Human VR1 [3H] RTX binding assay
# REPORTED CONDITIONS: 3H-RTX binding; compound at 1 μM
Mark label 1 for reported inhibition at 1 µM of 60% or greater; mark label 0 for anything smaller.

- COMPOUND: "CCCCCCCN(C)c1cccc(C(=O)Nc2cnc3ccccc3c2)c1"
  LABEL: "label 1"
- COMPOUND: "CCCCCN(C)c1ccc(C(=O)Nc2cnc3ccccc3c2)cc1C"
  LABEL: "label 1"
- COMPOUND: "CCCCC(C)(C)c1ccc(C=CCC(=O)Nc2cnc3ccccc3c2)cc1"
  LABEL: "label 1"
- COMPOUND: "CCCCCN(CCCCC)c1cccc(C(=O)Nc2cnc3ccccc3c2)c1"
  LABEL: "label 1"
- COMPOUND: "CC(C)CCN(C)c1ccc(C(=O)Nc2cnc3ccccc3c2)cc1"
  LABEL: "label 1"

Query: Is inhibition at 1 µM for O=C(Nc1cnc2ccccc2c1)c1ccc(N(Cc2ccccc2)Cc2ccccc2)cc1 at or above 60%?
Reply: label 0

Query: Is inhibition at 1 µM for O=C(Nc1cnc2ccccc2c1)c1ccc(N2CCCC2)cc1 at or above 60%?
Reply: label 0

Query: Is inhibition at 1 µM for CCC(C)(C)c1ccc(C=CCC(=O)Nc2cnc3ccccc3c2)cc1 at or above 60%?
Reply: label 0

Query: Is inhibition at 1 µM for CC1CN(c2ccc(C(=O)Nc3cnc4ccccc4c3)cc2)CC(C)O1 (centres unmarked) at or above 60%?
Reply: label 0

Query: Is inhibition at 1 µM for CCCCCN(C)c1ccc(C=CC(=O)Nc2cnc3ccccc3c2)cc1 at or above 60%?
Reply: label 1
